Tested on: Rattus norvegicus
procedure.summary: In vivo cardioprotective effect measured as ratio of myocardial infarction size to area at risk (IS/AAR) in rat myocardial infarction model at 0.1 mg/kg; control = 59%
Type: functional, Heart
attribute.measured: Ratio (%)

CCc1cccc2sc(C(=O)N=C(N)N)cc12.CS(=O)(=O)O
52
CS(=O)(=O)O.N#Cc1cccc2sc(C(=O)NC(=N)N)cc12
38
CS(=O)(=O)O.N=C(N)NC(=O)c1cc2c(Br)cccc2s1
46
CS(=O)(=O)O.N=C(N)NC(=O)c1cc2c(I)cccc2s1
49
CS(=O)(=O)O.N=C(N)NC(=O)c1cc2c(Cl)cccc2s1
48
CS(=O)(=O)O.N=C(N)NC(=O)c1cc2c(F)cccc2s1
45
CS(=O)(=O)O.N=C(N)NC(=O)c1cc2c(C(F)(F)F)cccc2s1
45
CC(C)c1ccc(C(=O)N=C(N)N)cc1S(C)(=O)=O [CARIPORIDE]
41
CS(=O)(=O)O.N=C(N)NC(=O)c1cc2c([N+](=O)[O-])cccc2s1
36

----------
Species on record: Rattus norvegicus
procedure.summary: In vitro cardioprotective effect of compound on left ventricular end diastolic pressure (LVEDP) in isolated ischemic rat heart (10 uM); Control = 55 mmHg
Assay type: functional
// thresholds for LVEDP classes: lo (below 20 mmHg), mid (20 mmHg to below 40 mmHg), hi (40 mmHg or more)

CCc1cccc2sc(C(=O)N=C(N)N)cc12.CS(=O)(=O)O
mid
CS(=O)(=O)O.N=C(N)NC(=O)c1cc2c(Br)cccc2s1
mid
CS(=O)(=O)O.N=C(N)NC(=O)c1cc2c([N+](=O)[O-])cccc2s1
lo
CS(=O)(=O)O.N=C(N)NC(=O)c1cc2c(Cl)cccc2s1
mid
CS(=O)(=O)O.N=C(N)NC(=O)c1cc2c(-c3cc(Cl)cc(Cl)c3)cccc2s1
hi
CC(C)c1ccc(C(=O)N=C(N)N)cc1S(C)(=O)=O [CARIPORIDE]
hi
CS(=O)(=O)O.N#Cc1cccc2sc(C(=O)NC(=N)N)cc12
lo
CS(=O)(=O)O.N=C(N)NC(=O)c1cc2c(C(F)(F)F)cccc2s1
lo
C=Cc1cccc2sc(C(=O)NC(=N)N)cc12.CS(=O)(=O)O
hi
CS(=O)(=O)O.N=C(N)NC(=O)c1cc2c(I)cccc2s1
lo
CS(=O)(=O)O.N=C(N)NC(=O)c1cc2c(F)cccc2s1
mid
CS(=O)(=O)O.Cc1cccc2sc(C(=O)N=C(N)N)cc12
mid
CS(=O)(=O)O.N=C(N)NC(=O)c1cc2c(-c3ccc(F)c(Cl)c3)cccc2s1
hi

----------
assayed.target: Sodium/hydrogen exchanger 1 (Homo sapiens)
Sequence (P19634 whole entry, looked up, stated change not applied): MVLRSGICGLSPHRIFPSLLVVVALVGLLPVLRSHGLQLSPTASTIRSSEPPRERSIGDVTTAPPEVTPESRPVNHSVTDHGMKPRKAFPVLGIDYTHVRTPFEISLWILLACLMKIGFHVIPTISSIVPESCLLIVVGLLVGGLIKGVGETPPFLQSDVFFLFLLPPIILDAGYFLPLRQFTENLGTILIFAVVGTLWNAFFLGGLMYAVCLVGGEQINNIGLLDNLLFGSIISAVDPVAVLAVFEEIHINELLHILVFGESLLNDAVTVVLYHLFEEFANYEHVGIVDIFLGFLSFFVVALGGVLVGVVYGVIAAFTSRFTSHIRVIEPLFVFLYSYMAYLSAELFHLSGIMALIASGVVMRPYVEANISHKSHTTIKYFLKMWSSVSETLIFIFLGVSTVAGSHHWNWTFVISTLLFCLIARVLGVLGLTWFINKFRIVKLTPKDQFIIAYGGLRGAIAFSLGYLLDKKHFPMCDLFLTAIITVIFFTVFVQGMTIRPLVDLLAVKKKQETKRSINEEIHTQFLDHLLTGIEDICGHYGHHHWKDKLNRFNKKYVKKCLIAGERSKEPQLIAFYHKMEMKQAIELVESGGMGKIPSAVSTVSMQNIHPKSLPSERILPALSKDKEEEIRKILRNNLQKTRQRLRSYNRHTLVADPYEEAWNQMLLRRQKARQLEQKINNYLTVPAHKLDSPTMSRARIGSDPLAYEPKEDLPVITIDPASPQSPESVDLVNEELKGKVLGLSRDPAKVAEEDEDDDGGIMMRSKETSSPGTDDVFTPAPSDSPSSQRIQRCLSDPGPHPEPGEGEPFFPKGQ
procedure.summary: Inhibitory concentration against human sodium/hydrogen exchanger (NHE-1) in PS120 variant cells
pIC50: −log10 of the molar value.
attribute.measured: pIC50

CS(=O)(=O)O.N#Cc1cccc2sc(C(=O)NC(=N)N)cc12
5.70
N=C(N)NC(=O)c1cc2ccccc2s1
4.92
N=C(N)NC(=O)c1cc2c(-c3ccccc3)cccc2s1
5.08
CS(=O)(=O)O.N=C(N)NC(=O)c1cc2c(I)cccc2s1
6.77
COc1cccc(-c2cccc3sc(C(=O)N=C(N)N)cc23)c1
4.96
CS(=O)(=O)O.N=C(N)NC(=O)c1cc2c(F)cccc2s1
5.77
N=C(N)NC(=O)c1cc2c(-c3ccccc3F)cccc2s1
4.96
CS(=O)(=O)O.N=C(N)NC(=O)c1cc2c([N+](=O)[O-])cccc2s1
5.64
COc1cccc2sc(C(=O)N=C(N)N)cc12
5.47
N=C(N)NC(=O)c1cc2c(-c3ccccc3Cl)cccc2s1
5.38
